Biological target: Histone deacetylase 4 (Homo sapiens) (UniProt P56524)
Sequence (P56524 whole entry): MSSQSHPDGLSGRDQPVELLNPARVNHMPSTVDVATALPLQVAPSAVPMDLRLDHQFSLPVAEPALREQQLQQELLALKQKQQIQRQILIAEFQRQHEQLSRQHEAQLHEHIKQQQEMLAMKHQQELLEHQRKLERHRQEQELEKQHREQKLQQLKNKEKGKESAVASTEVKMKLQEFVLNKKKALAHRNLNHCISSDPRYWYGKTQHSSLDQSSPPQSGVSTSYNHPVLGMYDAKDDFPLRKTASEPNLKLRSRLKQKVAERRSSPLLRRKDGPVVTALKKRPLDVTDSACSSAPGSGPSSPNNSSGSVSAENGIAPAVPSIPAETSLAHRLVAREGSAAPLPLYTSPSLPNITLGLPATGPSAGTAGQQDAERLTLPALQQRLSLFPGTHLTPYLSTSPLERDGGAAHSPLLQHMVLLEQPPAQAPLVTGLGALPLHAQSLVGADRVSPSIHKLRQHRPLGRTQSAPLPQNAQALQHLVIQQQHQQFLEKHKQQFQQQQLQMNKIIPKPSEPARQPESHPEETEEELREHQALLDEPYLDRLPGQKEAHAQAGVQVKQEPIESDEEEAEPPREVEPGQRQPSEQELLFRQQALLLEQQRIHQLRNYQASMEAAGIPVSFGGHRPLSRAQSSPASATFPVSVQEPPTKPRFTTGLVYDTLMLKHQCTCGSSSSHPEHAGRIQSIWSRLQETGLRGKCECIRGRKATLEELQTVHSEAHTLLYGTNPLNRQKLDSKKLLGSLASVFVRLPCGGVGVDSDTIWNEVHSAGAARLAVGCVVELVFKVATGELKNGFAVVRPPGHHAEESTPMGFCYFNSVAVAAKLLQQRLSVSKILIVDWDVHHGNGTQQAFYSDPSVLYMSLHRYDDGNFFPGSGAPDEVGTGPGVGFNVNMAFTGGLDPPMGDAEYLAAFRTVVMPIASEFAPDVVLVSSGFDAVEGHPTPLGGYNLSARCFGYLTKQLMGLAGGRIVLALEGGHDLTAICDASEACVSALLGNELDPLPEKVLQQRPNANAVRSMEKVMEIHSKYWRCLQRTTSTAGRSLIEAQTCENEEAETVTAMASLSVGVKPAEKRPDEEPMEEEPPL
Assay: Inhibition of human HDAC4 at 1 uM using Boc-Lys(trifluoroacetyl)-AMC substrate
Decision: inhibition compared against 3%; not below it gives yes, below it gives no.

- compound: "CC(C)[C@@H](C(=O)Nc1ccc(C(=O)Nc2ccccc2N)cc1)c1ccccc1"
  group-label: "yes"

**Q:** Evaluate CC(C)(C(=O)Nc1ccc(C(=O)Nc2ccc(F)cc2N)cc1)c1ccccc1 : inhibition at minimum 3%?
**A:** no

**Q:** Then what about the compound Nc1ccccc1NC(=O)c1ccc(NC(=O)Cc2ccc(C(F)(F)F)cc2)cc1 ?
**A:** no

**Q:** Then what about the compound Nc1cc(F)ccc1NC(=O)c1ccc(NC(=O)Cc2ccc(C(F)(F)F)cc2)cc1 ?
**A:** no

**Q:** Then what about the compound CC(C)[C@@H](C(=O)Nc1ccc(C(=O)Nc2ccc(F)cc2N)cc1)c1ccccc1 ?
**A:** no

**Q:** Then what about the compound CC(C)[C@H](C(=O)Nc1ccc(C(=O)Nc2ccccc2N)cc1)c1ccccc1 ?
**A:** no

**Q:** Then what about the compound CC(C)(C(=O)Nc1ccc(C(=O)Nc2ccccc2N)cc1)c1ccccc1 ?
**A:** yes

**Q:** Then what about the compound CC(C)[C@H](C(=O)Nc1ccc(C(=O)NO)cc1)c1ccccc1 ?
**A:** yes

**Q:** Then what about the compound Nc1cc(F)ccc1NC(=O)c1ccc(NC(=O)C2CC2c2ccccc2)cc1 (stereo not given) ?
**A:** no

---

Kindly supply the reported pIC50 values for the records listed here.
Molecular target: Histone deacetylase 3/Nuclear receptor corepressor 2 (HDAC3/NCoR2) (Homo sapiens, UniProt O15379)
Sequence (O15379 whole entry, the tested form may be a part): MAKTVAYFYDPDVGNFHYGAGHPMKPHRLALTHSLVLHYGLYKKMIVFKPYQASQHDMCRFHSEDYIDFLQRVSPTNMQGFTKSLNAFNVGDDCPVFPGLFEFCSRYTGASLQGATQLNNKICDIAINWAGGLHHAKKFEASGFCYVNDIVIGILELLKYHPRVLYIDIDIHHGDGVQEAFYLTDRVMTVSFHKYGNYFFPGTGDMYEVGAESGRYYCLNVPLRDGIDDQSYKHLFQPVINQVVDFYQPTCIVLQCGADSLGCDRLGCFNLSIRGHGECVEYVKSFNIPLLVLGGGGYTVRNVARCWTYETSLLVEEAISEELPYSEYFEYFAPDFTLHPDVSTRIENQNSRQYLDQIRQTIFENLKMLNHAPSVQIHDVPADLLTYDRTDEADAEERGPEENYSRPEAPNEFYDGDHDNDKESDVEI
Sequence (Q9Y618 whole entry, further chain, the tested form may be a part): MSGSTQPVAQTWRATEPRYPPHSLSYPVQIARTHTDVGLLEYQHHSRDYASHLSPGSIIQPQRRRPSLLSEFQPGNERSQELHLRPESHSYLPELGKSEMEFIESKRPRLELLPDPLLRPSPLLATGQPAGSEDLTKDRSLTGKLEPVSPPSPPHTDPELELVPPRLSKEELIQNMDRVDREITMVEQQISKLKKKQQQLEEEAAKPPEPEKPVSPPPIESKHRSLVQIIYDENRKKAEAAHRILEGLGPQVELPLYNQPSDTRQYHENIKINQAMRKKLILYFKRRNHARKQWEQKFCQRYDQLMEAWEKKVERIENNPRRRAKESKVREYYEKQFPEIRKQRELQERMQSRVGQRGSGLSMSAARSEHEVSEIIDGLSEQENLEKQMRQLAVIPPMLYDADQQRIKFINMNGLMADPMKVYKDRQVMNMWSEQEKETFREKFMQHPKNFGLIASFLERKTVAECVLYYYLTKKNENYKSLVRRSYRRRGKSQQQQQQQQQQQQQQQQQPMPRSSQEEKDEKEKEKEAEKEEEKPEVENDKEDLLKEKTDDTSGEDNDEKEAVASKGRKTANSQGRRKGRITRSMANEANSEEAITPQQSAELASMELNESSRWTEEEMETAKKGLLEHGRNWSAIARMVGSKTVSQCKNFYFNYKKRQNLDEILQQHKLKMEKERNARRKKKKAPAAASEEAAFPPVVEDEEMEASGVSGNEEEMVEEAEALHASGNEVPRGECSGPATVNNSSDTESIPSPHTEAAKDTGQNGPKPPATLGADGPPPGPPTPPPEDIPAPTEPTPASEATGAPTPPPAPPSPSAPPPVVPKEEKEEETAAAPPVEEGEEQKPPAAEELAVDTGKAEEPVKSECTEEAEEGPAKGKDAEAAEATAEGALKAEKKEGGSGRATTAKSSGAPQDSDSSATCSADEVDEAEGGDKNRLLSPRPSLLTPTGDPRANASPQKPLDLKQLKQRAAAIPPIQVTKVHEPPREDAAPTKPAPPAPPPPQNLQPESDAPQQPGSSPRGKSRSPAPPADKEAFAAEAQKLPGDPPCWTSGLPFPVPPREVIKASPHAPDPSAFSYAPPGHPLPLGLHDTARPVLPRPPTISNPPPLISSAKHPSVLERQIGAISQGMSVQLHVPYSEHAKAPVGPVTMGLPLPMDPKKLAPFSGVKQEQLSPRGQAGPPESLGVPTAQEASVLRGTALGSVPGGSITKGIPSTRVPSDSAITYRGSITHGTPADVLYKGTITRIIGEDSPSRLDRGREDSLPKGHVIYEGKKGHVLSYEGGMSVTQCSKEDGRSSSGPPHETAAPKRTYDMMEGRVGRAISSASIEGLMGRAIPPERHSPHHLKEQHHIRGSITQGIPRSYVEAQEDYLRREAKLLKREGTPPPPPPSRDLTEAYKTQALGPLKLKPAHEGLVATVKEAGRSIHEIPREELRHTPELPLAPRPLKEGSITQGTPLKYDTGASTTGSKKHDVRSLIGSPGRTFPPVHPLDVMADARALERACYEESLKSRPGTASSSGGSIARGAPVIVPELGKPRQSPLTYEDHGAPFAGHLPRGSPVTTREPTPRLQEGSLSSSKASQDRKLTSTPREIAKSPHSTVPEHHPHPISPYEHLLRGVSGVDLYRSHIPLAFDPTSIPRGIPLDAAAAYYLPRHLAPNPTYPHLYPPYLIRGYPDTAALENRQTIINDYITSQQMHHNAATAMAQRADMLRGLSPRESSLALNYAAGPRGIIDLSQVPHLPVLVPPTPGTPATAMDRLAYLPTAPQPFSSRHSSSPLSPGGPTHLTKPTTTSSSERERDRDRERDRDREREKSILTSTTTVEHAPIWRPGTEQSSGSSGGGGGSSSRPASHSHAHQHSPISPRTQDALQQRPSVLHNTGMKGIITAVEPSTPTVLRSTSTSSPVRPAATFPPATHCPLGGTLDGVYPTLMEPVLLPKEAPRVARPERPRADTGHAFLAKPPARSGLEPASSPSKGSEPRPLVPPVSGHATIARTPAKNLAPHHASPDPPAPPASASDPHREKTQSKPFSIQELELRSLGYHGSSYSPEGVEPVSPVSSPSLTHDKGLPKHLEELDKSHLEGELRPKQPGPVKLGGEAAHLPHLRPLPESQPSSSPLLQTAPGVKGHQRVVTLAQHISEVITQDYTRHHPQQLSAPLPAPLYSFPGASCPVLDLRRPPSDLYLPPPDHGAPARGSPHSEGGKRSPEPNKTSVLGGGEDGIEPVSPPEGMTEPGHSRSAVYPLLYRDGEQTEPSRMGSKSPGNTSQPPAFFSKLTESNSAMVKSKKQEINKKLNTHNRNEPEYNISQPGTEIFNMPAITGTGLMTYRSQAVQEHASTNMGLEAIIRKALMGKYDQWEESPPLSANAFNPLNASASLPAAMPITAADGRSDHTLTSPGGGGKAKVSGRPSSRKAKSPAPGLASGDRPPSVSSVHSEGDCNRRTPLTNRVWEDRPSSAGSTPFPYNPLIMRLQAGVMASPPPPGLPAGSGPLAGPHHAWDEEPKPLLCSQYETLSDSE
Assay: Inhibition of human HDAC3/NCOR2 using p53 (379 to 382 residues) derived fluorogenic peptide RHKKAc
Give bare numbers, as −log10 of the molar value.

Known pIC50 results, listed for orientation:
- mol-smiles: "CC(C)[C@@H](C(=O)Nc1ccc(C(=O)Nc2ccc(F)cc2N)cn1)c1ccccc1"
  pIC50: 5.77
- mol-smiles: "CC[C@H](C(=O)Nc1ccc(C(=O)Nc2ccc(F)cc2N)nc1)c1ccccc1"
  pIC50: 6.28

Now for the compound whose pIC50 we want.
**Q:** Any idea what its pIC50 is? The compound is C[C@H](C(=O)Nc1ccc(C(=O)Nc2ccc(F)cc2N)nc1)c1ccccc1
**A:** 6.89

---

Species on record: Homo sapiens
Test: Selectivity index, ratio of IC50 for human HDAC1 to IC50 for human HDAC3
Decision: Ratio IC50 compared against 9; not below it gives True, below it gives False.

**Q:** Evaluate C[C@@H](C(=O)Nc1ccc(C(=O)Nc2ccc(F)cc2N)cc1)c1ccccc1 : Ratio IC50 at minimum 9?
**A:** False

**Q:** Then what about the compound CC[C@@H](C(=O)Nc1ccc(C(=O)Nc2ccc(F)cc2N)cc1)c1ccccc1 ?
**A:** True

**Q:** Then what about the compound CC(C)[C@@H](C(=O)Nc1ccc(C(=O)Nc2ccc(F)cc2N)cc1)c1ccccc1 ?
**A:** False

**Q:** Then what about the compound C[C@H](C(=O)Nc1ccc(C(=O)Nc2ccc(F)cc2N)cc1)c1ccccc1 ?
**A:** True

**Q:** Then what about the compound CC[C@H](C(=O)Nc1ccc(C(=O)Nc2ccc(F)cc2N)cc1)c1ccccc1 ?
**A:** True

**Q:** Then what about the compound CC(C)[C@@H](C(=O)Nc1ccc(C(=O)Nc2ccc(F)cc2N)nc1)c1ccccc1 ?
**A:** False

---

Biological target: Histone deacetylase 3/Nuclear receptor corepressor 2 (HDAC3/NCoR2) (Homo sapiens)
Test: Inhibition of human HDAC3/NCOR2 using p53 (379 to 382 residues) derived fluorogenic peptide RHKKAc
property: pIC50
One number for each entry, as −log10 of the molar value.

Known pIC50 results, listed for orientation:
- compound: "Nc1cc(F)ccc1NC(=O)c1ccc(NC(=O)Cc2ccc(F)cc2)cc1"
  pIC50: 6.70
- compound: "Nc1cc(F)ccc1NC(=O)c1ccc(NC(=O)[C@@H]2C[C@@H]2c2ccccc2)cc1 (relative stereo)"
  pIC50: 6.70
- compound: "Nc1cc(F)ccc1NC(=O)c1ccc(NC(=O)Cc2ccc(C(F)(F)F)cc2)cc1"
  pIC50: 6.70
- compound: "Nc1cc(F)ccc1NC(=O)c1ccc(NC(=O)C2CC2c2ccccc2)cc1 (stereo not given)"
  pIC50: 6.70

**Q:** Any idea what its pIC50 is? The compound is Nc1cc(F)ccc1NC(=O)c1ccc(NC(=O)Cc2ccc(F)cc2)cn1
**A:** 6.41

---

Kindly supply the reported IC50 values for the records listed here.
Biological target: Histone deacetylase 1 (Homo sapiens)
Sequence (Q13547 whole entry): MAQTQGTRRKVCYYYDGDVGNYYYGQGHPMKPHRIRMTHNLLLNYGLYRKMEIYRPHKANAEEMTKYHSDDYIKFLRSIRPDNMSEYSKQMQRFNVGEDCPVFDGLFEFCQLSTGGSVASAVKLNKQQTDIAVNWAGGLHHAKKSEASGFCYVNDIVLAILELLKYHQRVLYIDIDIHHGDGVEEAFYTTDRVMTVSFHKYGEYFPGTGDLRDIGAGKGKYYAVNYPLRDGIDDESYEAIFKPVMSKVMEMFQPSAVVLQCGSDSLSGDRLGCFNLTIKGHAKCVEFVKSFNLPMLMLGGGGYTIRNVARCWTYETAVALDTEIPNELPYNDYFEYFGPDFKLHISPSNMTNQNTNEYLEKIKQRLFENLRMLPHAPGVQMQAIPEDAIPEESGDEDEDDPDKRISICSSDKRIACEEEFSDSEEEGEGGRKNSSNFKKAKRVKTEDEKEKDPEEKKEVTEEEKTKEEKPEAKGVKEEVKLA
Give bare numbers, in nM.

- compound: "Nc1cc(F)ccc1NC(=O)c1ccc(NC(=O)C2CC2c2ccccc2)cn1 (stereo not given)"
  test-result: 1200
- compound: "Nc1cc(F)ccc1NC(=O)c1ccc(NC(=O)[C@@H]2C[C@@H]2c2ccccc2)cc1 (relative stereo)"
  test-result: 1300
- compound: "Nc1cc(F)ccc1NC(=O)c1ccc(NC(=O)CCc2ccccc2)cc1"
  test-result: 1200
- compound: "C[C@@H](C(=O)Nc1ccc(C(=O)Nc2ccc(F)cc2N)nc1)c1ccccc1"
  test-result: 760

**Q:** Any idea what its IC50 is? The compound is C[C@H](C(=O)Nc1ccc(C(=O)Nc2ccc(F)cc2N)nc1)c1ccccc1
**A:** 1400

---

Molecular target: Histone deacetylase 2 (Homo sapiens, UniProt Q92769)
Sequence (Q92769 whole entry, the tested form may be a part): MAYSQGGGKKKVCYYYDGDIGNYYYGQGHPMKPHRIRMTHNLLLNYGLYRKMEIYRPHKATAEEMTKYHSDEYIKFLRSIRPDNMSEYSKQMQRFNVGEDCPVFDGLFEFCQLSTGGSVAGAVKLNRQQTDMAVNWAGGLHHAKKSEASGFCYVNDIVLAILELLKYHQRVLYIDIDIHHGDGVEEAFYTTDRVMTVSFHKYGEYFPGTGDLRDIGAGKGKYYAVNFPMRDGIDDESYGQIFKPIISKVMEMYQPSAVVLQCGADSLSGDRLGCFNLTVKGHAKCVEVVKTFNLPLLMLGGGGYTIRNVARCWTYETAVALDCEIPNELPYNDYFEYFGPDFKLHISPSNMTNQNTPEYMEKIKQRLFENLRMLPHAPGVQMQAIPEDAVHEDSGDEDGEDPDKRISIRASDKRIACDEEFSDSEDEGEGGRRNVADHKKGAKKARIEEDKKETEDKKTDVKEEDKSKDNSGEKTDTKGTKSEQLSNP
Test: Inhibition of human HDAC2 using p53 (379 to 382 residues) derived fluorogenic peptide RHKKAc
property: IC50

Known IC50 results, listed for orientation:
- compound: "Nc1cc(F)ccc1NC(=O)c1ccc(NC(=O)Cc2ccc(F)cc2)cn1"
  measured-on: "Histone deacetylase 2 (Homo sapiens, UniProt Q92769)"
  property: "IC50"
  test-result: "3000 nM"
- compound: "CC(C)[C@@H](C(=O)Nc1ccc(C(=O)Nc2ccc(F)cc2N)nc1)c1ccccc1"
  measured-on: "Histone deacetylase 2 (Homo sapiens, UniProt Q92769)"
  property: "IC50"
  test-result: "1100 nM"

Parameters: items (list). Returns: IC50 for each item.
1. CC[C@@H](C(=O)Nc1ccc(C(=O)Nc2ccc(F)cc2N)cc1)c1ccccc1
2. Nc1cc(F)ccc1NC(=O)c1ccc(NC(=O)[C@@H]2C[C@@H]2c2ccccc2)cc1 (relative stereo)
3. Nc1cc(F)ccc1NC(=O)c1ccc(NC(=O)Cc2ccc(C(F)(F)F)cc2)cn1

**A:**
1200 nM
2100 nM
> 10000 nM
